- System: HCC 2998
- run.description: NCI tumour cell line growth inhibition, 48 h
Activity calls are given as the source filed them. No stated cut-off is given here; in the data, active = GI50 up to about 1.1 µM and inactive = higher. Where a SMILES comes first, the peptide text is derived from it. Non-standard residues stand in square brackets, D forms with d. Residues, ends and D or L forms follow the SMILES beside them. The star is where a group is joined. ξ: configuration not given here. *: point of attachment. ξF = NC(Cc1ccccc1)C(=O)O; Cbz = O=C(OCc1ccccc1)*; Boc = CC(C)(C)OC(=O)*; Aib = CC(C)(N)C(=O)O
Reported GI50 values for a set of compounds
assay.endpoint: GI50

- compound: "COc1c(-c2ccc3c(c2)OCO3)oc2cc(O)cc(O)c2c1=O"
  value.measured: "78.9 µM (inactive)"
- compound: "CN(C)CCCN1c2ccccc2CCc2cc([N+](=O)[O-])ccc21"
  value.measured: "17.7 µM (inactive)"
- compound: "O=c1c2cc3ccccc3n2c(=O)c2cc3ccccc3n12"
  value.measured: "> 100 µM (inactive)"
- compound: "Clc1ccccc1-c1nc(-c2ccncc2)no1 [PIFEXOLE]"
  value.measured: "25.1 µM (inactive)"
- compound: "O=C(O)CSc1nnc(-c2ccc(O)cc2)[nH]1"
  value.measured: "> 100 µM (inactive)"
- compound: "CC(=O)OCC1OC(n2cnc(C(N)=S)c2N)C(OC(C)=O)C1OC(C)=O (configuration not stated)"
  value.measured: "> 100 µM (inactive)"
- compound: "O=C(O)c1cccc(S(=O)(=O)NN2C(=O)CSC2c2ccccc2Cl)c1 (configuration not stated)"
  value.measured: "> 100 µM (inactive)"
- compound: "CCOC(=O)c1cc2c3c(c(C(C)=O)c(OC)c2[nH]1)N(C(=O)CC)CC3"
  value.measured: "23.4 µM (inactive)"
- compound: "CC1(C)O[C@@H]2[C@@H]3OC(=O)C[C@@H]3[C@@H](COCc3ccccc3)[C@@H]2O1"
  value.measured: "> 100 µM (inactive)"
- compound: "CC(=O)OC1OC2C(NC(=O)OC(C)(C)C)C1CC2(OCc1ccccc1)OCc1ccccc1 (configuration not stated)"
  value.measured: "21.6 µM (inactive)"
- compound: "CCOc1ccc(/N=N/S(=O)(=O)O)cc1"
  value.measured: "> 100 µM (inactive)"
- compound: "CCc1n[nH]c(=O)n1N1C(=O)C2CC=CCC2C1=O (configuration not stated)"
  value.measured: "> 100 µM (inactive)"
- compound: "CSc1ccc(C=C2N=C(c3ccccc3)N(c3cc(C(=O)c4ccccc4)ccc3N3C(=O)/C(=C/c4ccc(SC)cc4)N=C3c3ccccc3)C2=O)cc1"
  value.measured: "46 µM (inactive)"
- compound: "NC1=NN(c2ccccc2)C(=O)C1/C(=N\\NC(=O)c1cc2ccccc2cc1O)C(=O)Nc1ccc(Cl)cc1 (configuration not stated)"
  value.measured: "28.9 µM (inactive)"
- compound: "O=C(O)COc1cc(-c2ccccc2F)nc2cc3c(cc12)OCO3"
  value.measured: "> 100 µM (inactive)"
- compound: "COc1ccc(CC(C)N)cc1 (configuration not stated)"
  value.measured: "> 100 µM (inactive)"
- compound: "Clc1ccc2[nH]c(CC3CCCC3)nc2c1"
  value.measured: "20 µM (inactive)"
- compound: "COc1ccc(C2=Nn3c(nnc(Cc4ccc(Cl)cc4)c3=O)SC2)cc1"
  value.measured: "55.1 µM (inactive)"
- compound: "C[C@@]12C[C@@H](c3ccccc3O1)N1CCCSC1=N2"
  value.measured: "> 100 µM (inactive)"
- compound: "O=c1sc2ccccc2n1CC1CS1 (configuration not stated)"
  value.measured: "> 100 µM (inactive)"
- compound: "CC(=O)CC(=O)N1CCOC1=O"
  value.measured: "> 10 µM (inactive)"
- compound: "O=C(c1ccccc1)c1cc[n+](C2=C([N-]S(=O)(=O)c3ccccc3)C(=O)c3ccccc3C2=O)cc1"
  value.measured: "11.4 µM (inactive)"
- compound: "Cn1c2ccccc2n2c(N=O)c(-c3ccccc3)nc12"
  value.measured: "11.7 µM (inactive)"
- compound: "CCOC(=O)CNC(=O)C(Cc1ccccc1)NC(=O)C(C)(C)NC(=O)OCc1ccccc1 (configuration not stated) (Cbz-[Aib]-[ξF]-Gly-OEt)"
  value.measured: "43.5 µM (inactive)"
- compound: "COc1ccc2c(c1)[C@@]13CCCC[C@H]1[C@@H](C2)N(C)CC3=O"
  value.measured: "16.8 µM (inactive)"
- compound: "CCN(CC)CCn1c(=O)c2c(C)c3oc4ccccc4oc3c(C)c2c1=O"
  value.measured: "> 100 µM (inactive)"
- compound: "NC(=O)N/N=C(\\CCC(=O)N(Cc1ccccc1)Cc1ccccc1)CC(=O)c1ccc(F)cc1"
  value.measured: "> 100 µM (inactive)"
- compound: "CN1C(=O)c2c(c3c4ccccc4n(C4OC(CO)C(O)C(O)C4O)c3c3[nH]c4ccccc4c23)C1=O (configuration not stated)"
  value.measured: "2.07 µM (inactive)"
- compound: "CC(C)(C)OC(=O)NCC(=O)NCC(=O)NCC(=O)NCC(=O)O (Boc-GGGG-OH)"
  value.measured: "> 100 µM (inactive)"
- compound: "O=C(NCCNCCO)c1cccc2ccc(-c3ccccc3)nc12"
  value.measured: "5.01 µM (inactive)"
- compound: "C[n+]1cccc2c(=O)c3ccccc3oc21"
  value.measured: "> 100 µM (inactive)"
- compound: "COc1ccc(CCNC(=S)NC=C2C(=O)c3ccccc3C2=O)cc1OC"
  value.measured: "> 100 µM (inactive)"
